Tested on: HOP-18
PROCEDURE TEXT: NCI tumour cell line growth inhibition, 48 h
Active and inactive are the calls of the source. No stated cut-off is given here; in the data, active = GI50 up to about 1.1 µM and inactive = higher.
Valid outcomes are listed here; reply with one: True (active), False (inactive)

Which outcome was entered for the molecule Cc1ccc2c(c1)c(=O)c1c(NCCN(C)C)ccc3nnn2c31 in this test?
False

// outcome(item) with item = CC(N)Cc1cccc(C(F)(F)F)c1 (centres undefined)
False

Per the assay record, what outcome was assigned to CC(C)C(=O)N[C@@H](C)C(=O)N(Cc1ccc2ccccc2c1)N=O ?
True

What was the test verdict on C/C=C(/C)C(=O)O[C@H]1[C@H](O)CC(c2ccc3c(c2O)C(=O)C2=C(O)C4(OC)C(=O)C(C(N)=O)=C(O)[C@H](CC(=O)c5ccccc5O)C4CC2[C@@]3(C)OC)O[C@@H]1C (some centres undefined) ?
True
